Molecular target: BTK (Homo sapiens, UniProt Q06187)
Sequence (Q06187 402-655 limits assumed): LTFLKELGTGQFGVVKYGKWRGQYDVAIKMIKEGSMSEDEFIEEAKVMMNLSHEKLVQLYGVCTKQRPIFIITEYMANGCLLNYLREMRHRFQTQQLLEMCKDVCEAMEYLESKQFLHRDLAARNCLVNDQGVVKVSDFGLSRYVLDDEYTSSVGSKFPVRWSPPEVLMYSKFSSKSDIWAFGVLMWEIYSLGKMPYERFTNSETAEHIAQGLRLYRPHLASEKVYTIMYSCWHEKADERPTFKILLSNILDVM
Assay: biochemical
Settings: read-out: BTK inhibition (%), 0.75 uM BTK, […] probe 3l, 15 min preincubation
For each record, write down the corresponding inhibition at 10 µM.
One number for each entry, in %.

# count of solved cases: 5
What the record says about CCN1CCN(c2cc3c(cc2F)c(=O)c(C(=O)O)cn3C2CC2)CC1 : inhibition at 10 µM is -11.9

So, N#Cc1ccc(COC[C@H]2O[C@@H](n3c(NCc4ccc(Cl)c(Cl)c4)nc4c(N)ncnc43)[C@H](O)[C@@H]2O)cc1 ? Its inhibition at 10 µM was 7.7

Given item Nc1ncnc2c1C(=O)N(c1ccc(C3CCC(CC(=O)O)CC3)cc1)CCO2 (centres unmarked) , the value recorded as its inhibition at 10 µM is 3.1

CC(C)OC(=O)CCC/C=C\C[C@@H]1[C@@H](/C=C/C(F)(F)COc2ccccc2)[C@H](O)C[C@@H]1O has a reported inhibition at 10 µM of -61.5

CCN1CCN(Cc2ccc(Nc3ncc(F)c(-c4cc(F)c5nc(C)n(C(C)C)c5c4)n3)nc2)CC1 has a reported inhibition at 10 µM of -12.4

Hello, I would appreciate it if you could give inhibition at 10 µM for each entry below.
1. CC1(C)CCC(C)(C)c2cc(NC(=O)c3ccc(C(=O)O)cc3)ccc21
2. Nc1ccn([C@H]2CC[C@@H](CO)O2)c(=O)n1
3. CC[C@@H](C(N)=O)N1CCCC1=O
4. CN(C)CCc1c[nH]c2ccc(CS(=O)(=O)N3CCCC3)cc12
5. O=S(=O)(N=Cc1c(O)ccc2ccccc12)c1cccs1
6. COc1c(C)c2c(c(O)c1C/C=C(\C)CCC(=O)O)C(=O)OC2

RESULT:
[-18.7, -22.6, 15.6, -0.8, -11.6, 19.3]

# batch size: 7; output inhibition at 10 µM per entry
1. C[N+](C)(C)CCOP(=O)([O-])OC[C@H](O)CO
2. CCOC(=O)c1cccc(N)c1
3. O=C(Nc1ccc([N+](=O)[O-])cc1O)Nc1ccccc1Br
4. CC1=C(C(=O)OCCN(Cc2ccccc2)c2ccccc2)C(c2cccc([N+](=O)[O-])c2)C(P2(=O)OCC(C)(C)CO2)=C(C)N1 (centres unmarked)
5. O=C(/C=C/c1ccc2ccccc2n1)c1ccncc1
6. CN(C)Cc1c[nH]c2ccccc12
7. CN1C(C(=O)Nc2ccccn2)=C(O)c2ccccc2S1(=O)=O

RESULT:
1. 1.7
2. -2.3
3. 73.1
4. 7.8
5. 11.7
6. -24.9
7. 9
